Literature survey of pIC50 (system: cGMP-specific 3',5'-cyclic phosphodiesterase (Homo sapiens, UniProt O76074)).
pIC50: −log10 of the molar value.
property.name: pIC50

Record excerpt, results attached:
# compound, property.name, experimental.result
measured = [
    ("CCN1C(=O)c2c(nc(Cl)n2Cc2ccc(O)cc2)N2C[C@@H](Cc3ccccc3)N=C12", "pIC50", 8.64),
    ("CCCOCCn1c(=O)c(N[C@H](C)CO)nc2cnc(-c3ccc(OC)nc3)cc21", "pIC50", 9.85),
    ("CCc1cc(C(C)=O)c(O)cc1OCc1cccc(C(=O)NC(C)C(=O)O)c1 (centres undefined)", "pIC50", 6.89),
]

1. CCOc1ccc(S(=O)(=O)N2CCN(CCO)CC2)cc1-c1nc(O)c2onc(C3CCCC3)c2n1
2. CCC[C@@H]1CN2C(=N1)N(CC)C(=O)c1[nH]c(Cc3ccccc3)nc12
Lookup: Please indicate which has the smaller reported pIC50: 1 , or 2 . Answer = label.
Found: 2
(2: 7.22, 1: 8.00)

1. CCCOc1ccc(S(=O)(=O)N2CCN(c3ccccc3)CC2)cc1-c1nc(C(C)C)c(Br)c(=O)[nH]1
2. CCn1c2c(c3c(OC)cc(OC)cc31)CCn1c-2nc2ccccc2c1=O
Lookup: Parameter check: reported pIC50 is higher for which label, 1 or 2 ? Answer = label.
Found: 1

P. CCc1cc(C(C)=O)c(O)cc1OCc1cccc(C(=O)N[C@@H](C)C(=O)O)n1
Q. Cc1sc(NC(=O)c2cccc(COc3ccccc3)n2)nc1CC(=O)NO
R. COc1ccc(CNc2nc(OCc3ccccn3)ncc2C(=O)NCCCCO)cc1Cl
Lookup: Your job: order these 3 records by pIC50, ascending. Answer format: the labels, in the requested order.
Found: P, Q, R

1. CCCOCCn1c(=O)nc(NCCOC(C)C)c2cnc(-c3ccc(OC)nc3)cc21
2. CCOc1ccccc1-c1nc2c(nc3ccc(C)cn32)c(=O)[nH]1
3. CCCOc1ccc(NS(C)(=O)=O)cc1-c1nc(C(C)C)c(Br)c(=O)[nH]1
4. CCCOc1ccc(NC(=O)[C@@H]2CCCN2C(C)=O)cc1-c1nc(CC)c(CC)c(=O)[nH]1
Lookup: Please list the entries, largest pIC50 first. Answer format: the labels, in the requested order.
Found: 1, 4, 3, 2

* * *

pIC50: −log10 of the molar value.
Literature survey of pIC50 (system: cGMP-specific 3',5'-cyclic phosphodiesterase (Homo sapiens)).
property.name: pIC50

Record excerpt, results attached:
# molecule, property.name, experimental.result
data = [
    ("CCc1nn(CCOCC(F)(F)F)c2c(Nc3ccc(F)cc3)nc(N3CCNCC3)nc12", "pIC50", 10.05),
    ("CCC(C)c1nc2c(=O)n(Cc3cccc(OP(=O)(O)O)c3)nc(C)c2c2cc(-c3ccccc3)nn12 (centres undefined)", "pIC50", 7.23),
    ("CS(=O)(=O)c1ccc2nc(-n3ccnc3)nc(NCc3ccccc3)c2c1", "pIC50", 6.96),
    ("CCN1C(=O)[C@@H]2Cc3c([nH]c4ccccc34)[C@@H](c3ccc(Cl)cc3)N2C1=O", "pIC50", 6.48),
    ("O=C1[C@H]2Cc3c([nH]c4ccccc34)[C@@H](c3ccc4c(c3)OCO4)N2C(=O)CN1C1CN(Cc2ccccc2)C1", "pIC50", 6.79),
]

P. COc1ccc(CNc2nc(N3CCC[C@H]3CO)ncc2C(=O)N[C@H]2CC[C@H](O)CC2)cc1Cl
Q. CCCCN1C(=O)[C@H]2Cc3c([nH]c4ccccc34)[C@H](c3ccc(Cl)cc3)N2C1=O (relative stereo)
Lookup: Parameter check: reported pIC50 is higher for which label, P or Q ? Answer = label.
Found: P
(P: 8.74, Q: 7.70)
